# Species: Rattus norvegicus
# experiment notes: Spasmolytic activity in Wistar rat ileum
# Type: functional
value kind: IC50 (µM)
Answer format: numeric, µM implied, no suffix.

**Q:** Field request: IC50 | item: CCCOc1ccccc1-c1nc2ccccc2[nH]1
**A:** 1.9

**Q:** Field request: IC50 | item: c1ccc2[nH]c(-c3ccc4c(c3)OCO4)nc2c1
**A:** 3.4

**Q:** Field request: IC50 | item: Oc1ccc(-c2nc3ccccc3[nH]2)cc1
**A:** 5.25

**Q:** Field request: IC50 | item: c1ccc2[nH]c(-c3ccncc3)nc2c1
**A:** 190

**Q:** Field request: IC50 | item: Cc1ccc(COc2ccccc2-c2nc3ccccc3[nH]2)cc1
**A:** 15

**Q:** Field request: IC50 | item: CN(C)c1ccc(-c2nc3ccccc3[nH]2)cc1
**A:** 30

**Q:** Field request: IC50 | item: COc1cc(-c2nc3ccccc3[nH]2)ccc1O
**A:** 1.19

**Q:** Field request: IC50 | item: Oc1ccccc1-c1nc2ccccc2[nH]1
**A:** 5.15

**Q:** Field request: IC50 | item: COc1ccc(-c2nc3ccccc3[nH]2)c(OC)c1OC
**A:** 1.8

**Q:** Field request: IC50 | item: CCOc1ccccc1-c1nc2ccccc2n1CC
**A:** 1.72

**Q:** Field request: IC50 | item: COc1cc(OC)c(-c2nc3ccccc3[nH]2)cc1OC
**A:** 4

**Q:** Field request: IC50 | item: COc1ccc(-c2nc3ccccc3[nH]2)cc1
**A:** 10.6

**Q:** Field request: IC50 | item: COc1ccc(-c2nc3ccccc3[nH]2)cc1OC
**A:** 5.6

**Q:** Field request: IC50 | item: COc1ccccc1-c1nc2ccccc2[nH]1
**A:** 7.7

**Q:** Field request: IC50 | item: c1ccc(COc2ccccc2-c2nc3ccccc3[nH]2)cc1
**A:** 28.2

**Q:** Field request: IC50 | item: Clc1ccc(COc2ccccc2-c2nc3ccccc3[nH]2)cc1
**A:** 59

**Q:** Field request: IC50 | item: CCOc1ccccc1-c1nc2ccccc2[nH]1
**A:** 1.94

**Q:** Field request: IC50 | item: O=[N+]([O-])c1ccccc1-c1nc2ccccc2[nH]1
**A:** 78.6
